Field: IC50. Provide a value for each of the molecules that follow.
TARGET_OR_SYSTEM: SRC kinase (Gallus gallus, UniProt P00523, Y527F)
Construct: expressed in transfected cells; host or cells: NIH 3T3, stably transfected (gift of S. Courtneidge, Heidelberg)
METHOD_SUMMARY: Src kinase activity assay (immunoprecipitate from src-transformed NIH 3T3 cells)
Type: biochemical, chicken
MEASUREMENT_PARAMETERS: read-out: IC50 (50% inhibition of phosphorylation) SRC kinase

SMILES_REPR	IC50
Cc1nc2cc3nc(-c4ccccc4)cnc3cc2n1C	> 30 µM

Query block: Look up and report IC50, with SRC kinase (Gallus gallus, UniProt P00523, Y527F) as system, for Cc1nc2cc3nc(-c4cccs4)cnc3cc2n1C
Result block: > 30 µM

###

Field: pIC50. Provide a value for each of the molecules that follow.
TARGET_OR_SYSTEM: EGFR (Mus musculus, UniProt Q01279)
Construct: Membranes were prepared from confluent cultures of Swiss 3T3 cells; endogenous in cells
Sequence (Q01279 25-1210): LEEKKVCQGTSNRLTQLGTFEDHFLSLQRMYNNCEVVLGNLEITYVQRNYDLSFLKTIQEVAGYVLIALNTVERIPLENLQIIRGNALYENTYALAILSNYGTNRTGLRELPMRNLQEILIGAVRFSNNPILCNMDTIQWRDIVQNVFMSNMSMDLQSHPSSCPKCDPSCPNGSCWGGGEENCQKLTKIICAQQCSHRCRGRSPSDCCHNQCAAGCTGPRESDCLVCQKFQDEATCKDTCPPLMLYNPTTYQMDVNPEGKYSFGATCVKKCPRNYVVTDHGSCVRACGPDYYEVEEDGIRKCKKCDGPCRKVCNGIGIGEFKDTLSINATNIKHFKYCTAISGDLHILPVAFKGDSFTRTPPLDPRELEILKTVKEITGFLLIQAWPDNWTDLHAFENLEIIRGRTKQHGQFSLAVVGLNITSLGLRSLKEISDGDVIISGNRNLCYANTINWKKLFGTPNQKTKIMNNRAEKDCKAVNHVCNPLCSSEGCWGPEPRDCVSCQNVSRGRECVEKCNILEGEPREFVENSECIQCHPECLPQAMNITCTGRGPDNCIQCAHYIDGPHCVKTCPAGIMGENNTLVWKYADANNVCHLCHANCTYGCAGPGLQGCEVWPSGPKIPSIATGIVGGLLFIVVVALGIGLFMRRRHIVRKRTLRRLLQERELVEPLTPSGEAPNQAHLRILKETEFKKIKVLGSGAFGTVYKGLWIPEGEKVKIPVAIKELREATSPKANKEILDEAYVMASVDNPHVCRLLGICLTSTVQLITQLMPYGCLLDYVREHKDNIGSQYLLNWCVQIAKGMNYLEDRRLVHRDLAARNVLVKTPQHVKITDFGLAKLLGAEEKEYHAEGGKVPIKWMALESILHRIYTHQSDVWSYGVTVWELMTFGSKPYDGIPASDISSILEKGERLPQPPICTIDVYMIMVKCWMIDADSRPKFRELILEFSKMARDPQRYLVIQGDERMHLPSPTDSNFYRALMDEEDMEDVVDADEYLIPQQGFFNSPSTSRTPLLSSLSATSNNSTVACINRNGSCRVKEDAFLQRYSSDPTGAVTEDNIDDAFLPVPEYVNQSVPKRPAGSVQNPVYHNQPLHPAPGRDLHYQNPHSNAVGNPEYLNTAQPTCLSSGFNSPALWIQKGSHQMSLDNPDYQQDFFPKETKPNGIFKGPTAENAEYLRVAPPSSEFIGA
METHOD_SUMMARY: EGFR autophosphorylation, isolated membranes or intact Swiss 3T3 cells
MEASUREMENT_PARAMETERS: read-out: IC50 (50% inhibition of phosphorylation) EGFR
pIC50: −log10 of the molar value.

Some entries whose results are on file:
MOLECULE	pIC50
Cc1nc2cc3nc(-c4cccs4)cnc3cc2n1C [AG1992]	< 4.52
Cc1cc2ncc(-c3cccs3)nc2cc1C [AG1990]	< 4.52

From here, focus on the item given below.
Query block: Entry Cc1nc2cc3nc(-c4ccccc4)cnc3cc2n1C [AG1851] needs its pIC50 filled in; supply it.
Result block: < 4.52

Reference source: patent US5932580A
